- Test system: A549 NSCLC
- protocol summary: NCI tumour cell line growth inhibition, 48 h
Kindly supply the reported TGI values for the records listed here.

API: value(readout= TGI, system= A549 NSCLC, query= COc1cc2c(cc1OC)C(Cc1ccc(Oc3cc(CC4c5cc(OC)c(OC)cc5CCN4C)ccc3O)cc1)N(C)CC2 (stereo not given) )
> 100 µM

So what TGI did CCC[CH2][Sn]([CH2]CCC)([O]C(=O)c1ccc(C)c(N)c1)[O]C(=O)c1ccc(C)c(N)c1 get with A549 NSCLC?
8.33 µM

Item: CC(C)(C)C(=O)CC1(O)C=C(O)C(O)(CC(=O)C(C)(C)C)O1 (stereo not given) Test system: A549 NSCLC Read-out: TGI Value: ?
> 100 µM

Param readout= TGI; system= A549 NSCLC; entry= COc1ccc2c(=O)c(-c3cc4c(cc3OC)OCO4)coc2c1 ; returns value.
> 100 µM

Which measured TGI belongs to CCOc1ccc(NC(=O)/C(=N\N)C(C(=O)OC)c2nc3ccc(Cl)cc3[nH]c2=O)cc1 (stereo not given) , tested on A549 NSCLC?
> 100 µM

Recorded TGI for Clc1ccc(C2=NOC(C3CCCCC3)C2)cc1 (stereo not given) with A549 NSCLC, please?
> 100 µM

Hello, I am looking for reported TGI with A549 NSCLC for ClC1=C(Cl)C(Cl)=C(Cl)C1=Cc1ccccc1 . Could you help?
4.32 µM

Find TGI (A549 NSCLC) for the entry C[C@H]1CC[C@@H]2[C@@H](C)C[C@H]3[C@@H]4C(C)(C)OC(=O)[C@]4(C)C(=O)[C@@]23C1=O
> 100 µM

Lab note: need TGI with A549 NSCLC for entry Cc1cc(-c2c(Br)cc(C(=O)O)n2C)on1 , please look it up.
> 100 µM

Notebook: pull reported TGI for A549 NSCLC, entry CC(=O)Nc1ccc2c(C3=C(c4cn(C)c5ccccc45)C(=O)NC3=O)cn(C)c2c1
> 25 µM

* * *

- System: SF-295 CNS
- protocol summary: NCI tumour cell line growth inhibition, 48 h
assay metric: TGI (µM)
Write down the numeric answer in µM and omit the unit.

Any idea what TGI was measured for Oc1ccc(CCl)c2cccnc12 ?
25.8

Field request: TGI | item: CC(=O)OC1Oc2ccc(C)cc2-c2oc(=O)c(-c3cc4ccccc4oc3=O)cc21 (stereo not given)
13

Quick one: TGI for COc1cccc2c1C(=O)c1c(O)c3c(c(O)c1C2=O)CC(O)(C(=O)CO)CC3OC1CC(N)C(I)C(C)O1 (stereo not given) ?
23.3

Quick one: TGI for CCCCCc1c(C)[nH]c(/C=C2\N=C(c3ccc[nH]3)C=C2Oc2ccccc2)c1C ?
0.106

* * *

- Tested on: DMS 273 small cell lung
- protocol summary: NCI tumour cell line growth inhibition, 48 h
assay metric: TGI

What does the record list as TGI for CC(=O)NC1=C(C)C(=O)c2c(nc3n2CCC3OC(=O)CCl)C1=O (configuration not stated) ?
33.6 µM

Given the entry COc1cc2c(cc1OC)[Se]c1cc(OC)c(OC)cc1[Se]2 , report its measured TGI.
> 100 µM

// TGI lookup, key: CC(C1=CC=C2[C@@H]3CCC4CC(N(C)C)CC[C@]4(C)C3CC[C@]12C)N(C)C=O (some centres not stated)
> 100 µM

Consider the compound shown here: COC(=O)C(C/C=C(\C)c1ccccc1)C(C)=O (configuration not stated) What is its recorded TGI?
> 100 µM

What value of TGI has been reported for the following compound? N#Cc1ccc(Sc2ccccc2)cc1C#N
36.6 µM

Bench note: what TGI did COC(=O)C1=C(c2cc(OC)c(OC)c(OC)c2)OC(c2ccc3c(c2)OCO3)C1 (configuration not stated) show?
> 100 µM

Could you tell me which TGI is on file for O=Cc1c(Cn2ccnc2)c2cc([N+](=O)[O-])ccc2n1Cc1ccccc1 ?
> 100 µM

Entry CC1(C)C(=NN=C(N)N)C(C)(C)C1=NN=C(N)N : reported TGI = ?
> 100 µM

Name the recorded TGI for CCOC(=O)C1(c2ccccc2)CCCNCC1 (configuration not stated) .
> 100 µM

Need TGI, item CN1C(=O)N(C)C(N2CCCC2)c2c1nc1ccccn1c2=O (configuration not stated)
> 100 µM

If you can, please state the reported TGI value of Cn1nc(N)nc1N=S(C)(C)=N .
> 100 µM

Recorded TGI of Cc1nc2ccccc2c(=O)n1NC(=S)Nc1ccccc1 , please.
> 100 µM

What does the record list as TGI for N.N.NCCCCCCN.O=C([O-])CCl.O=C([O-])CCl.O=C([O-])CCl.O=C([O-])CCl.[Pt+4].[Pt+4] ?
> 50 µM

Quick one: TGI for CCC1(O)C(=O)OCc2c1cc1n(c2=O)Cc2cc3ccc(CO)cc3nc2-1 (configuration not stated) ?
11.1 µM

Please look up its TGI: O=[N+]([O-])c1ccc(N=Nc2c(O)[nH]c3ccc(Br)cc23)cc1
24 µM

Entry under review: COc1ccccc1-n1c(C)nc2ccccc2c1=O . Reported TGI?
> 100 µM

State the recorded TGI for this entry: CC(=O)NC1=C(C)C(=O)c2c(nc3n2CCC3OC(=O)c2ccccc2)C1=O (configuration not stated)
5.28 µM

* * *

- Test system: SK-MEL-2 melanoma
- protocol summary: NCI tumour cell line growth inhibition, 48 h
Would you kindly list TGI for each of these molecules?

# query: TGI | item CCNC(=S)NNC(=O)c1csc(NC(=S)NC2CCCCC2)n1 | system: SK-MEL-2 melanoma
29.3 µM

# query: TGI | item CCCC(=O)c1ccc2c(ccc(=O)n2C)c1 | system: SK-MEL-2 melanoma
> 100 µM

Give TGI (SK-MEL-2 melanoma) of the following molecule: COc1cccc2cc(N(C)c3ncnc4ccccc34)ccc12
14.4 µM

Identify the measured TGI of C=CCCC1CCCCC/C1=N\N(C)C (stereo not given) for SK-MEL-2 melanoma.
> 100 µM

Fill in the recorded TGI for this molecule, with SK-MEL-2 melanoma as test system: CC(O)(CCCCCl)c1nc2ccccc2s1 (stereo not given)
> 100 µM

Give TGI (SK-MEL-2 melanoma) of the following molecule: COc1ccccc1-c1cc(=O)c2ccccc2n1C1CC1
8.07 µM

Enter reported TGI observed with SK-MEL-2 melanoma for COC1=C(OC)C23CCc4ccc(OC)c(O)c4C2(CCN3)CC1=O (stereo not given)
> 100 µM

Give TGI (SK-MEL-2 melanoma) of the following molecule: Nc1ncnc2nc(N3CCN(CCO)CC3)[nH]c12
> 100 µM

Lab note: need TGI with SK-MEL-2 melanoma for entry C=CCOC(C)n1c(C)c(Br)c(=O)[nH]c1=O (stereo not given) , please look it up.
> 100 µM

Notebook: pull reported TGI for SK-MEL-2 melanoma, entry CC(=O)NC1=C(C)C(=O)c2c(nc3n2CCC3OC(=O)c2ccccc2)C1=O (stereo not given)
3.19 µM

Checklist item: TGI tested on SK-MEL-2 melanoma, entry ClC1=C(Cl)C(Cl)=C(Cl)C1=Cc1ccccc1 , value?
2.97 µM

Enter reported TGI observed with SK-MEL-2 melanoma for CSc1nc(SC)c2cnn(CC3CO3)c2n1 (stereo not given)
31.7 µM

Item: Cc1cc(-c2c(Br)cc(C(=O)O)n2C)on1 Test system: SK-MEL-2 melanoma Read-out: TGI Value: ?
> 100 µM

Notebook entry, SK-MEL-2 melanoma assay: TGI of Cc1nc2ccccc2c(/C=C/c2ccc(Cl)cc2)c1C(=O)/C=C/c1ccc(F)cc1 = ?
3.79 µM

# query: TGI | item CCC(CN(C)C)C(=O)c1ccco1 (stereo not given) | system: SK-MEL-2 melanoma
> 100 µM

Give the reported TGI for COc1ccc2c(c1OC)CO[C@@H]2[C@H]1c2c(c(Br)c3c(c2OC)OCO3)CCN1C (system: SK-MEL-2 melanoma).
43.7 µM

Hello, I am looking for reported TGI with SK-MEL-2 melanoma for COC(=O)CCC1(NS(=O)(=O)c2ccc(C)cc2)CCC(C(C)(C)C)CC1 (stereo not given) . Could you help?
33.5 µM

SK-MEL-2 melanoma / TGI / NC(Cc1c[nH]c2ccccc12)P(=O)(O)O (stereo not given) : value?
> 100 µM

What TGI appears in the records for this molecule with SK-MEL-2 melanoma? O=C1Nc2ccccc2C1(c1c[nH]c2ccccc12)c1c[nH]c2ccccc12
4.51 µM

Query for SK-MEL-2 melanoma: what TGI does the record show for CCOCCOc1ccc(OCCOCC)cc1 ?
> 63.7 µM

What measured TGI is associated with O=C(CNc1c(Cl)cccc1Cl)Nc1ccc(-c2nc3ccccc3s2)cc1 on SK-MEL-2 melanoma?
12.4 µM

Query for SK-MEL-2 melanoma: what TGI does the record show for Cc1c2nc3ccccc3sc-2cc(=O)c1C ?
> 25.2 µM

What reported TGI corresponds to CC1(C)CC(=O)c2c(nc3c(ccc4ccccc43)c2-c2ccc(NC(=O)CCCC(=O)Nc3ccc(-c4c5c(nc6c4ccc4ccccc46)CC(C)(C)CC5=O)cc3)cc2)C1 on SK-MEL-2 melanoma?
> 100 µM

API: value(readout=TGI, system=SK-MEL-2 melanoma) for record COC(=O)C(CCC1CC(OC)N(C(=O)OCc2ccccc2)C1)N=Cc1ccccc1 (stereo not given)
78.8 µM

Item CC(=O)Nc1ccc2c(C3=C(c4cn(C)c5ccccc45)C(=O)NC3=O)cn(C)c2c1 with SK-MEL-2 melanoma - TGI?
> 25 µM

Can you look up TGI on SK-MEL-2 melanoma for COCOc1cc(OC)ccc1C/C=N/O ?
> 100 µM

Kindly state the measured TGI obtained for COc1ccc(Cc2nc3cc([N+](=O)[O-])ccc3n2C[C@@H]2CCCN3CCCCC23)cc1 (stereo not given in full) with SK-MEL-2 melanoma.
33.2 µM

Find TGI (SK-MEL-2 melanoma) for the entry CCOC(=O)C1(C(=O)OCC)OC(=O)NC2=C1CCCC2
> 100 µM

Write down the reported TGI of COc1ccc2c(=O)c(-c3cc4c(cc3OC)OCO4)coc2c1 , test system: SK-MEL-2 melanoma.
> 100 µM

Test system SK-MEL-2 melanoma; read-out TGI; what value for CO/C(N)=C(\C#N)N=Cc1cccnc1 ?
> 100 µM

Recorded TGI for CN(C)c1ccc(/C=N/N=C2\C(=O)Nc3c(Cl)cc(Cl)cc32)cc1 with SK-MEL-2 melanoma, please?
> 100 µM

Observed TGI on SK-MEL-2 melanoma for CCCCn1c(C)c(C(=O)CC)c(C(=O)NCCN2CCN(c3ccccc3Cl)CC2)c1C , please.
32.1 µM

Identify the measured TGI of Oc1ccc2c(c1)OCC1c3ccccc3OC21 (stereo not given) for SK-MEL-2 melanoma.
> 100 µM

Kindly state the measured TGI obtained for Cc1c2cnccc2c(C)c2c1c1ccccc1n2CC1CO1 (stereo not given) with SK-MEL-2 melanoma.
3.44 µM

# query: TGI | item COc1ccc(-c2c(C#N)c(N)nc3c2COc2ccc(F)cc2-3)cc1OC | system: SK-MEL-2 melanoma
> 100 µM

Entry CN(C)CCNC(=O)c1cc([N+](=O)[O-])cn1C , system SK-MEL-2 melanoma: what TGI was measured?
> 100 µM

Under SK-MEL-2 melanoma: TGI value of O=C(/C=C/c1cccc([N+](=O)[O-])c1)c1cccnc1 ?
> 100 µM

Please provide the recorded TGI for CC(=O)OC1Oc2ccc(C)cc2-c2oc(=O)c(-c3cc4ccccc4oc3=O)cc21 (stereo not given) , tested on SK-MEL-2 melanoma.
40.7 µM

Given the entry N#Cc1ccc(Sc2ccccc2)cc1C#N , what TGI was observed with SK-MEL-2 melanoma?
> 100 µM

Record lookup: for SK-MEL-2 melanoma, what TGI belongs to COc1ccc(CN2C(=O)C(Cl)=C(Nc3cccc(O)c3)C2=O)cc1 ?
24.5 µM

Query the reported TGI for SK-MEL-2 melanoma; item: CCn1ncc(Oc2c(Cl)cc(N)cc2Cl)c(Cl)c1=O
> 100 µM

Form field - read-out: TGI; system: SK-MEL-2 melanoma; submitted item: C/C=C\C(CC(=O)O)CN1CCC2=C(C1)C(S(=O)(=O)C(F)(F)F)c1ccccc12 (stereo not given)
> 100 µM

Report TGI for CCCCCCCC/C=C\CCCCCCC/C=C1/C[C@](/C=C/C(=O)OC)(CO)OC1=O tested on SK-MEL-2 melanoma.
27.6 µM

Query TGI on SK-MEL-2 melanoma for COc1cc(-c2nn(-c3ccc(NC(=O)NCCCNC(=O)c4ccccc4)cc3)cc2-c2ccncc2)ccc1Cl
5.22 µM

Hello, I am looking for reported TGI with SK-MEL-2 melanoma for COC(=O)C(=O)C(C(=O)OC)C(=O)C(=O)Nc1ccccc1C(N)=O (stereo not given) . Could you help?
> 100 µM
